# Tested on: Chordin-like protein 2 (CHRDL2)
# PROTOCOL_TEXT: CHRDL2 small-molecule binders, primary screen, biochemical, small-molecule microarray, 635 nm fluorescence (AID 1126);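 further: printed compound slides probed with Chrdl2 protein at 4 µg/mL for 1 h at 4 C; score merges 667 nm emission intensity with signal to noise over three replicate slides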
# CONDITION_CONTEXT: small-molecule microarray binding, fluorescence 635 nm; higher = more signal
MEASURED_QUANTITY: composite z-score
// no unit string in output, number only

# COMPOUND, EXPERIMENTAL_TARGET, composite z-score
records = [
    ("CO[C@H]1COC(=O)CCC[C@H](C)[C@@H](OC)COC(=O)CC=C[C@@H]1C", "Chordin-like protein 2 (CHRDL2)", 0.896),
    ("COc1ccc(COC(=O)NN=C2C[C@@H](O)[C@@H](O)[C@@H]3[C@@H]4C(=O)N(Cc5ccccc5)C(=O)[C@@H]4CC[C@@H]23)cc1", "Chordin-like protein 2 (CHRDL2)", 0.172),
    ("COC(=O)CC=C[C@@H](C)[C@@H](C=NOC[C@@H](O)[C@H]1O[C@@H]2OC(C)(C)O[C@@H]2[C@H]1O)OC", "Chordin-like protein 2 (CHRDL2)", 0.744),
    ("CCN1C(C)=C(C(=O)OC)[C@@H](c2ccccc2)N2C(=O)[C@](O)(C(=O)OC)CC(C(C)=O)=C12", "Chordin-like protein 2 (CHRDL2)", 0.285),
    ("CCN1C(=O)[C@H]2[C@@H]3C(=CC[C@H]2C1=O)C(=O)[C@H]1O[C@H]1[C@H]3O", "Chordin-like protein 2 (CHRDL2)", 1.21),
]

Next item in the queue.
// COCC#Cc1ccc([C@@H]2N[C@H](C(=O)O)CC[C@H]2C)cc1 : composite z-score value = 0.305

* * *

# PROTOCOL_TEXT: PSAC antagonists in infected red cells, primary screen, cell-based, P. falciparum Indochina, OD700, 2 h (AID 1155);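 further: lysis reports solute entry through the parasite surface anion channel PSAC; channel blockers reduce lysis of infected cells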
# CONDITION_CONTEXT: P. falciparum Indochina infected erythrocytes, osmotic lysis OD700, called active from +8 up or from −8 down
The source made the active and inactive calls.
In this exercise, the only acceptable responses are active, inactive

Worked cases, answers included:
# MOLECULE, CLASS_NAME
data = [
    ("CC(C)=CCCC(C)=CCON=C1[C@H]2CCn3c(=O)n(-c4ccccc4)c(=O)n3[C@H]2[C@H](O)[C@@H]2O[C@H]12", "inactive"),
    ("COC(=O)[C@H](C)NC(=O)CCC1CC(OC(=O)NCc2cccc3ccccc23)CC2(CCCC(COC(=O)NCc3cccc(C(F)(F)F)c3)O2)O1 (stereo not given in full)", "inactive"),
    ("CCOC(=O)CCN1C(=O)[C@H]2[C@H]3[C@H](O)[C@H](O)CC(=NNC(=O)OCc4ccc(OC)cc4)[C@H]3CC[C@H]2C1=O", "inactive"),
    ("CO[C@H]1COC(=O)[C@H](C)COC(=O)[C@H](C)NC(=O)CC=C[C@H]1C", "inactive"),
    ("O=C1[C@H]2[C@H]3[C@H](O)[C@H](O)CC(=NOC[C@@H](O)COCc4ccco4)[C@@H]3CC[C@H]2C(=O)N1Cc1ccccc1", "inactive"),
    ("COC(=O)CC=C[C@@H](C)[C@@H](C=NOC(C)CN1CCCCc2nc(C)c(C)cc21)OC (stereo not given in full)", "inactive"),
    ("O=C1[C@H]2[C@H]3[C@H](O)[C@H](O)CC(=NOC[C@@H](O)COCc4ccco4)[C@@H]3CC[C@H]2C(=O)N1c1cccc(Oc2ccccc2)c1", "inactive"),
    ("CC(C)(C)N1C(=O)[C@H]2[C@H]3[C@H](O)[C@H](O)CC(=NNC(=O)OCc4ccccc4)[C@H]3CC[C@H]2C1=O", "inactive"),
    ("O=C(NN=C1C[C@@H](O)[C@@H](O)[C@@H]2[C@@H]3C(=O)N(c4ccc(F)cc4F)C(=O)[C@@H]3CC[C@H]12)OCc1ccccc1", "inactive"),
    ("C[C@]12CCC3c4ccc(OCC5CO5)cc4CCC3C1CC[C@@H]2O (stereo not given in full)", "inactive"),
]

Lookup: Which outcome was entered for the molecule CCC1=NOC(CCC2CC(OC(=O)NCc3cccc4c3OCO4)CC3(CCCC(COC(=O)NCCc4ccc(Cl)cc4)O3)O2)C1 (stereo not given) in this test?
Found: inactive

Lookup: Which outcome was entered for the molecule CCN1C(=O)[C@H]2[C@@H]3C(=CC[C@H]2C1=O)C(=O)[C@H]1O[C@H]1[C@H]3O in this test?
Found: inactive

Lookup: Which outcome was entered for the molecule O=C(NN=C1C[C@@H](O)[C@@H](O)[C@@H]2[C@@H]3C(=O)N(Cc4ccc5c(c4)OCO5)C(=O)[C@@H]3CC[C@@H]12)OCc1ccccc1 in this test?
Found: inactive

Lookup: Which outcome was entered for the molecule CC(CCC(=O)OC[C@H]1O[C@H](C#Cc2ccccc2)C=C[C@@H]1Oc1ccc(C)cc1)=NO[C@@H](C)c1cc(-c2c(C)cc(C)cc2C)no1 in this test?
Found: inactive

Lookup: Which outcome was entered for the molecule CCOC(=O)[C@H](CC(C)C)NC(=O)CCC1CC(OC(=O)NCc2ccc3c(c2)OCO3)CC2(CCCC(COC(=O)NCc3ccccc3)O2)O1 (stereo not given in full) in this test?
Found: inactive

Lookup: Which outcome was entered for the molecule CC(C)[C@@H](OCc1ccccc1)[C@H](C)CON=C1[C@H]2CCn3c(=O)n(-c4ccccc4)c(=O)n3[C@H]2[C@H](O)[C@@H]2O[C@H]12 in this test?
Found: inactive

Lookup: Which outcome was entered for the molecule CC(CCN1CCCCc2nc(C)c(C)cc21)=NOC[C@@H](O)[C@H]1O[C@@H]2OC(C)(C)O[C@@H]2[C@H]1O in this test?
Found: inactive

Lookup: Which outcome was entered for the molecule COc1ccc(COC(=O)NN=C2C[C@@H](O)[C@@H](O)[C@@H]3[C@@H]4C(=O)N(C[C@@H]5CCCO5)C(=O)[C@@H]4CC[C@H]23)cc1 in this test?
Found: inactive

* * *

List of composite z-score values.
# EXPERIMENTAL_TARGET: Fibroblast growth factor 2 (Homo sapiens)
# PROTOCOL_TEXT: FGF2 binders on small-molecule microarrays, primary screen, biochemical, small-molecule microarray, 635/667 nm fluorescence (AID 1133)
# CONDITION_CONTEXT: small-molecule microarray binding, FGF2, fluorescence 635/667; higher = more signal
// no unit string in output, number only

Observe how each entry below is paired with its result.
# MOL, composite z-score
data = [
    ("CC[C@@H](c1ccccc1)n1c(=O)n2n(c1=O)[C@H]1[C@H](O)[C@@H]3O[C@@H]3C(=NOCc3ccccc3)[C@H]1CC2", 0.373),
    ("C[C@@H]1CC[C@H]2C(=O)N3[C@@H](CC[C@@H](C)[C@@H]3c3ccc(Br)cc3)C(=O)N2[C@H]1c1ccc(Br)cc1", 0.13),
    ("COc1ccc(O[C@H]2C=C[C@@H](c3ccccc3)O[C@@H]2CO)cc1", 0.363),
]

Next item in the queue.
// COc1cccc([C@H]2Oc3ccc(OC)cc3C(=NO[C@@H](C)c3cc(-c4c(C)cc(C)cc4C)no3)[C@@H]2O)c1 : composite z-score value = -2.11

* * *

# PROTOCOL_TEXT: small-molecule binders of probe aLefty1, primary screen, biochemical, small-molecule microarray, 635/667 nm fluorescence (AID 1153);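 further: score merges spot fluorescence with signal-to-noise ratio from the scanned slide images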
# CONDITION_CONTEXT: higher = more signal
Class boundaries, taken from values of composite z-score, are as follows: lower range (below -0.1), middle range (-0.1 to below -0.06), upper range (-0.06 or more)

Worked cases, answers included:
# MOLECULE, CLASS_NAME
data = [
    ("COc1ccc(COC(=O)NN=C2C[C@@H](O)[C@@H](O)[C@@H]3[C@@H]4C(=O)N(Cc5ccccc5)C(=O)[C@@H]4CC[C@@H]23)cc1", "middle range"),
    ("O=C1C2=CC[C@H]3C(=O)N(C4CCCCC4)C(=O)[C@H]3[C@H]2[C@H](O)[C@@H]2O[C@H]12", "lower range"),
    ("COc1ccc(COC(=O)NN=C2C[C@@H](O)[C@@H](O)[C@@H]3[C@@H]4C(=O)N(C5CCCCC5)C(=O)[C@@H]4CC[C@@H]23)cc1", "upper range"),
    ("COc1ccc(OC[C@@H](CO)OC)cc1", "lower range"),
]

Lookup: Which bin should I file CCN1C(=O)[C@H]2[C@H]3[C@H](O)[C@H](O)CC(=NOCC(C)C)[C@H]3CC[C@H]2C1=O under?
Found: middle range

Lookup: Which bin should I file CN1CCc2nc(-c3ccccc3)c(-c3ccccc3)cc2C1 under?
Found: middle range

Lookup: Which bin should I file C=CC[C@@H]1C=C[C@H](ON=C2C[C@@H](O)[C@@H](O)[C@@H]3[C@@H]4C(=O)N(CC)C(=O)[C@@H]4CC[C@@H]23)[C@@H](CO)O1 under?
Found: lower range

Lookup: Which bin should I file CO[C@@H]1C=CCC(=O)N[C@@H](C)C(=O)OC[C@@H](OC)[C@H](C)C=CCC(=O)OC[C@H]1C under?
Found: lower range

Lookup: Which bin should I file Cc1cc2c(nc1C)CCCCN2CC(O)CN1CCCc2nc(-c3ccc(Br)cc3)ccc21 (configuration not stated) under?
Found: upper range

Reference source for all entries: PubChem BioAssay
